Target: CXCR4 receptor (human, UniProt P61073 1-352)
Sequence (P61073 whole entry): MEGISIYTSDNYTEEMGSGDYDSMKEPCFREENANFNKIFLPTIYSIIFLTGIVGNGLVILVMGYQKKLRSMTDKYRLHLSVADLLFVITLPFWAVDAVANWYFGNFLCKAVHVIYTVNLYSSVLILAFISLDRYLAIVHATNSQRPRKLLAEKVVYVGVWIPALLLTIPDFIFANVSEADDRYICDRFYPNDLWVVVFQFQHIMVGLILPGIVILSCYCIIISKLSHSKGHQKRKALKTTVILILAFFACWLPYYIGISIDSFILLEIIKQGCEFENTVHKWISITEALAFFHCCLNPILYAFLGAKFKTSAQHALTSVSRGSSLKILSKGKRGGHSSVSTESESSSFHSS
Test: cell-based or functional assay
* marks the point of attachment. Palmitoyl = CCCCCCCCCCCCCCCC(=O)*
Readout type: Max (% of vehicle), chemotaxis, CEM, 1.0 uM

(Q) Could you tell me which Max (% of vehicle), chemotaxis, CEM, 1.0 uM is on file for Palmitoyl-HSKGHQKRKALKT-NH2 (SMILES CCCCCCCCCCCCCCCC(=O)N[C@@H](Cc1c[nH]cn1)C(=O)N[C@@H](CO)C(=O)N[C@@H](CCCCN)C(=O)NCC(=O)N[C@@H](Cc1c[nH]cn1)C(=O)N[C@@H](CCC(N)=O)C(=O)N[C@@H](CCCCN)C(=O)N[C@@H](CCCNC(=N)N)C(=O)N[C@@H](CCCCN)C(=O)N[C@@H](C)C(=O)N[C@@H](CC(C)C)C(=O)N[C@@H](CCCCN)C(=O)N[C@H](C(N)=O)[C@@H](C)O) [CXCR4 i3 loop compound 97] ?
(A) 54.7 % of vehicle
